# system name: UniProtKB Q8NEB9
# Sequence (Q8NEB9 whole entry): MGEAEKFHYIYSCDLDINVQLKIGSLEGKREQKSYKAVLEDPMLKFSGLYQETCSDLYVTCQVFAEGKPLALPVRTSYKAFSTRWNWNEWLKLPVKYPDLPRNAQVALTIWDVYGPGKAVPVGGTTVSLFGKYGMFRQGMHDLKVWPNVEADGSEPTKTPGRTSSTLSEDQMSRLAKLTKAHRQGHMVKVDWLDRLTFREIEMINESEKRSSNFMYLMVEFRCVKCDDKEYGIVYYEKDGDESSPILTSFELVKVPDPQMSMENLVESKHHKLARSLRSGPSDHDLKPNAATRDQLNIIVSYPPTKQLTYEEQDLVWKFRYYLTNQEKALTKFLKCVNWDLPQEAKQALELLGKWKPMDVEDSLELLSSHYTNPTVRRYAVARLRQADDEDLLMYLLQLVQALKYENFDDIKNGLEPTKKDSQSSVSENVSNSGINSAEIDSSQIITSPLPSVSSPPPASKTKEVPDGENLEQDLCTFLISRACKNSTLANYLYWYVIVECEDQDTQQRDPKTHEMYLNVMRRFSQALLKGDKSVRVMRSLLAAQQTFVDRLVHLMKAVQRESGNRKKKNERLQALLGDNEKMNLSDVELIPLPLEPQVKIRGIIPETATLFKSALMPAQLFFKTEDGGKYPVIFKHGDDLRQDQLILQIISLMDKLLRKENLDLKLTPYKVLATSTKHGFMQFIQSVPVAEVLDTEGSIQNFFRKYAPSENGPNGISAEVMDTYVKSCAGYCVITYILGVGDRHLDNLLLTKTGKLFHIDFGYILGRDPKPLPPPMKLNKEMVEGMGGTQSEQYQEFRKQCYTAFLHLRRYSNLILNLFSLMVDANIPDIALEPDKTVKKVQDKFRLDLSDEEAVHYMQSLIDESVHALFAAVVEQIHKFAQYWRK
# assay comment: Vps34 biochemical assay (Adapta kinase assay)
# test context: 20 μM ATP and 200 μM PI:PS in substrate mix, 1 h at room temperature, read-out: Median IC50 uM Adapta
IC50 values, listed per item
measurement kind: IC50 (µM)

[[record]]
compound = "CC1COCCN1c1cc(N2CCCC2c2cccnc2)[nH]c(=O)c1 (stereo not drawn)"
system_name = "UniProtKB Q8NEB9"
unit_abbreviation = "µM"
value = 0.05

[[record]]
compound = "O=c1cc(N2CCOCC2)cc(N2CCCC2c2ccccc2)[nH]1 (stereo not drawn)"
system_name = "UniProtKB Q8NEB9"
unit_abbreviation = "µM"
value = 0.05

[[record]]
compound = "C[C@@H]1COCCN1c1cc(N2CCCC2c2cc(F)ccc2F)[nH]c(=O)c1 (single isomer, unassigned) [Example 14_2]"
system_name = "UniProtKB Q8NEB9"
unit_abbreviation = "µM"
value = 0.05

